- target-of-assay: T1, huIgG1 monoFc tagged GALV gp70 protein (residues 42-474) (Gibbon ape leukemia virus, UniProt P21415 42-474)
- T1 construct: also called gp70 (42-474)
- T1 sequence: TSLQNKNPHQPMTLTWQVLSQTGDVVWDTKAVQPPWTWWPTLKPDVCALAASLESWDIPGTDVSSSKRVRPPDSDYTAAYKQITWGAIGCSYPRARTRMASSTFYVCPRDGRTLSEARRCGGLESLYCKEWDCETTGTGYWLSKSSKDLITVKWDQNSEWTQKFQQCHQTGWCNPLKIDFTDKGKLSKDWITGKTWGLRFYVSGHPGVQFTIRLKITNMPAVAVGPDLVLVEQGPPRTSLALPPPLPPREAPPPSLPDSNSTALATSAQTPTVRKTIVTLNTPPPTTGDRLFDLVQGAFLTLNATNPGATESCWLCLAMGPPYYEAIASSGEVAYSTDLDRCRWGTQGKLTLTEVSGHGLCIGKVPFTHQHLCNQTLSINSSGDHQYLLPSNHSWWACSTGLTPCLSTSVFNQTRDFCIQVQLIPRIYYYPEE
- assay-summary: BLI Octet Red96; antibody on AMC biosensor, 100 nM monoFc-gp70(42-474) analyte
readout: koff (s⁻¹)

[[record]]
binder = "8G8 (antibody, V domains shown, Anti-GALV gp70; One id for the hybridoma supernatant and the recombinant murine IgG2a antibody; also called 8G8-HC2 / 8G8-LC2) VH: QVQLQQPGAELVRPGSSVKLSCKASGYTFTNYWMDWVKQRPGQGLEWIGNIYPSDSETHYNQNFKDKATLTVDKSSSTAYMQLSSLTSEDSAVYYCARDYYWGQGTTLTVSS VL: QAVVTQESALTTSPGETVTLTCRSSTGAVTRSNYANWVQEKPDHLFTGLIGGTNNRALGVPARFSGSLIGDKAALTITGAQTEDEAIYFCALWYSNHLVFGGGTKLTVLQ"
readout = "koff"
recorded_number = "6.31e-05"

[[record]]
binder = "9A1 (antibody, V domains shown, Anti-GALV gp70; One id for the hybridoma supernatant and the recombinant murine IgG2a antibody; also called 9A1-HC3 / 9A1-LC1) VH: QVQLQQPGAELVRPGSSVRLSCKASGYTFTSYWMDWVKQRPGQGLEWIGNIYPSDSETHYNQKFKDKATLTVDKSSSTAYMQLSSLTSEDSAVYYCARDYYWGQGTTLTVSS VL: QAVVTQESALTTSPGETVTLTCRSSTGAVTRSNYANWVQEKPDHLFTGLIGGTNNRAPGVPARFSGSLIGDKAALTITGAQTEDEAIYFCALWYSNHLVFGGGTKLTVLQ"
readout = "koff"
recorded_number = 0.000447

[[record]]
binder = "2D3 (antibody, V domains shown, Anti-GALV gp70; One id for the hybridoma supernatant and the recombinant murine IgG2a antibody; also called 2D3-HC1 / 2D3-LC1) VH: QVQLQQPGAELVRPGSSVKLSCKASGYTFTNYWMDWVKQRPGQGLEWIGNIYPSDSETHYNQKFRDKATLTVDKPSSTAYMQLSSLTSEDSAVYYCARDYYWGQGTTLTVSS VL: QAVVTQESALTTSPGETVTLTCRSSTGAVTTSNYANWVQEKPDHLFTGLIGGTNNRALGVPARFSGSLIGDKAALTITGAQIEDEAIYFCALWYSNHLVFGGGTKLTVLQ"
readout = "koff"
recorded_number = 0.00048


FYI, the data here is from patent US20240343820A1.
